Molecular target: Human immunodeficiency virus type 1 reverse transcriptase (Human immunodeficiency virus 1, UniProt Q72547)
pIC50: −log10 of the molar value.
Binary classification by pIC50, with 7 as an inclusive lower bound for Fulfilled; all other cases are Not fulfilled.

Take a look at these entries with their results.
INSERT INTO assay_data (mol, qualitative_label) VALUES
  ('CCN1c2ncc(CCc3ccc4ccccc4c3)cc2C(=O)N(C)c2ccc(Cl)nc21', 'Not fulfilled'),
  ('CCN1c2ncc(CCc3ccc4ccccc4c3)cc2C(=O)N(C)c2ccc(F)nc21', 'Fulfilled'),
  ('CCN1c2ncc(-c3cccc(OC)c3)cc2C(=O)N(C)c2cccnc21', 'Not fulfilled'),
  ('CCN1c2ncc(/C=C/C(=O)OC)cc2C(=O)N(C)c2cccnc21', 'Not fulfilled'),
  ('CCN1c2ncc(CCc3ccccc3C)cc2C(=O)N(C)c2cccnc21', 'Not fulfilled'),
  ('CCN1c2ncc(CCc3ccccc3)cc2C(=O)N(C)c2cccnc21', 'Fulfilled');

Reported pIC50 reaches at least 7 for CCN1c2ncc(CCc3ccncc3)cc2C(=O)N(C)c2ccc(C#N)nc21 ? Not fulfilled

Reported pIC50 reaches at least 7 for CCN1c2ncc(CCc3ccnc(C(N)=O)c3)cc2C(=O)N(C)c2ccc(Cl)nc21 ? Fulfilled

Reported pIC50 reaches at least 7 for CCN1c2ncc(CCCO)cc2C(=O)N(C)c2cccnc21 ? Not fulfilled

Reported pIC50 reaches at least 7 for CCN1c2ncc(CCC#N)cc2C(=O)N(C)c2cccnc21 ? Not fulfilled

Reported pIC50 reaches at least 7 for CCN1c2ncc(/C=C\c3ccccc3)cc2C(=O)N(C)c2cccnc21 ? Not fulfilled

Reported pIC50 reaches at least 7 for CCN1c2ncc(CCO)cc2C(=O)N(C)c2cccnc21 ? Not fulfilled

Reported pIC50 reaches at least 7 for CCN1c2ncc(C(=O)O)cc2C(=O)N(C)c2cccnc21 ? Not fulfilled

* * *

Target: Human immunodeficiency virus type 1 reverse transcriptase (Human immunodeficiency virus 1)
pIC50: −log10 of the molar value.
Binary classification by pIC50, with 7 as an inclusive lower bound for Satisfied; all other cases are Not satisfied.

INSERT INTO measurements (mol, qualitative_label) VALUES
  ('CCN1c2ncc(CCc3ccc(NS(C)(=O)=O)cc3)cc2C(=O)N(C)c2ccc(Cl)nc21', 'Not satisfied'),
  ('CCN1c2ncc(CCc3cccc(N)c3)cc2C(=O)N(C)c2cccnc21', 'Satisfied'),
  ('CCN1c2ncc(CCc3ccc(C)cc3)cc2C(=O)N(C)c2ccc(Cl)nc21', 'Not satisfied');

Consider now this further compound.
Reported pIC50 reaches at least 7 for CCN1c2ncc(CCc3ccncc3)cc2C(=O)N(C)c2cccnc21 ? Satisfied

* * *

Target: Human immunodeficiency virus type 1 reverse transcriptase (Human immunodeficiency virus 1, UniProt Q72547, Y181C)
Experiment: Inhibitory activity against HIV-1 Y181C reverse transcriptase.
Kindly state IC50 for each of the entries shown.
One number for each entry, in nM.

Worked cases, answers included:
INSERT INTO assay_data (mol, units_text, meas_value) VALUES
  ('CCN1c2ncc(CCc3ccccc3)cc2C(=O)N(C)c2ccc(C3=CCC=N3)nc21', 'nM', 520),
  ('CCN1c2ncc(CCc3ccncc3)cc2C(=O)N(C)c2cccnc21', 'nM', 110),
  ('CCN1c2ncc(CCc3ccc4ccccc4c3)cc2C(=O)N(C)c2ccc(F)nc21', 'nM', 30),
  ('CCN1c2ncc(CCc3ccc(N)cc3)cc2C(=O)N(C)c2cccnc21', 'nM', 200);

Note: attention shifts to another entry.
Quick check: IC50 of CCN1c2ncc(CCC#N)cc2C(=O)N(C)c2cccnc21 ? 2160
